Test: Acid and thermal degradation of the surfactant
Details: 0.5% TFA; 37° C. where stated; 0.1% solution for 3220 and 3266
property-label: time to degradation in 0.5% TFA (min)
Just the number please, in min, no unit attached.

Request: # time to degradation in 0.5% TFA lookup, item CCCCCCCCCCC(OC(=O)NCCCS(=O)(=O)O)c1ccco1 (stereo not shown)
Response: 15

Request: # time to degradation in 0.5% TFA lookup, item CCCCCCCCCCC(OC(=O)NCCCS(=O)(=O)[O-])c1ccc(OC)cc1.[Na+] (stereo not shown)
Response: 15

----------
Entries and their ½-life values follow.
Test: Hydrolytic stability in 50 mM ammonium bicarbonate (reverse-phase HPLC)
Type: physicochemical
Conditions: surfactant conc. 0.025% in 50 mM ammonium bicarbonate
Just the number please, in h, no unit attached.

CCCCCCCCCCCCCCC(OC(=O)NCCCS(=O)(=O)[O-])c1ccc(OC)cc1.[Na+] (stereo not shown) | 128

// below: ½-life requested for another compound
Request: # ½-life lookup, item CCCCCCCCCCC(OC(=O)NCCCS(=O)(=O)O)c1ccco1 (stereo not shown)
Response: 1.1

----------
Assay: Acid and thermal degradation of the surfactant
property-label: degradation rate (grade in words)

CCCCCCCC(C)(C)OC(=O)Oc1ccc(NCCCS(=O)(=O)[O-])cc1.[Na+] | moderate
CCCCCCCCCSCC(C)(C)OC(=O)NCCCS(=O)(=O)O | moderate
CCCCCCCC(C)(C)OC(=O)NCC(O)CS(=O)(=O)O (stereo not shown) | moderate
CCCCCCCCCCC1COC(c2cccc(OCCCS(=O)(=O)[O-])c2)O1.[Na+] (stereo not shown) | low

----------
Assay: Hydrolytic stability in 50 mM ammonium bicarbonate (reverse-phase HPLC)
Format: physicochemical
Conditions: surfactant conc. 0.0025% in 50 mM ammonium bicarbonate
property-label: ½-life (h)
Just the number please, in h, no unit attached.

CCCCCCCCCCCCC(OC(=O)NCCCS(=O)(=O)O)c1ccco1 (stereo not shown) | 1.3
CCCCCCCCCCC(OC(=O)NCCCS(=O)(=O)[O-])c1ccc(OC)cc1.[Na+] (stereo not shown) | 3.7
CCCCCCCCCCC(OC(=O)NCCCS(=O)(=O)O)c1ccco1 (stereo not shown) | 0.5

// below: ½-life requested for another compound
Request: # ½-life lookup, item CCCCCCCCCCCCCCC(OC(=O)NCCCS(=O)(=O)[O-])c1ccc(OC)cc1.[Na+] (stereo not shown)
Response: 62

----------
Biological target: Myoglobin from horse heart digested with trypsin (Equus caballus, UniProt P68082)
Construct: Myoglobin from horse heart; from tissue; host or cells: horse heart
Sequence (P68082 2-154 limits assumed): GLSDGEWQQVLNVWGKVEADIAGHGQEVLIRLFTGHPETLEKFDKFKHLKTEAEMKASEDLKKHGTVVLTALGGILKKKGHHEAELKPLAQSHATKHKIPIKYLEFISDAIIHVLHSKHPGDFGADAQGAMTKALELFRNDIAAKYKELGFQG
Test: Myoglobin/Trypsin digest, HPLC peak area versus RapiGest control
Assay type: biochemical
Details: 0.01% surfactant, trypsin 50:1, 20 minutes at 37° C.; ratio to RapiGest control, >1 = more digestion
Labelling: surfactant Pk area/RG Pk area, Myoglobin/Trypsin digest reported below 0.7 becomes 1; at or above becomes -1.

Take a look at these entries with their results.
CCCCCCCCCCOc1ccc(C(OCCN(CCCCS(=O)(=O)[O-])CCCCS(=O)(=O)[O-])(c2ccccc2)c2ccc(OC)cc2)cc1.[Na+].[Na+] (centres unmarked) | 1
CCCCCCCCCCC(OC(=O)NCCCS(=O)(=O)O)c1ccco1 (centres unmarked) | -1
CCCCCCCCCCC(OC(=O)NCCCS(=O)(=O)O)c1cccs1 (centres unmarked) | -1

Request: hey, is surfactant Pk area/RG Pk area, Myoglobin/Trypsin digest for CCCCCCCCCCC1COC(c2cccc(OCCCS(=O)(=O)[O-])c2)O1.[Na+] (centres unmarked) lower than 0.7 or not?
Response: -1

Request: hey, is surfactant Pk area/RG Pk area, Myoglobin/Trypsin digest for `CCCCCCCCCOCC(C)(C)OC(=O)NCCCS(=O)(=O)O` lower than 0.7 or not?
Response: 1

Request: hey, is surfactant Pk area/RG Pk area, Myoglobin/Trypsin digest for CCCCCCCCCCC(OC(=O)NCCCS(=O)(=O)[O-])c1ccc(OC)cc1.[Na+] (centres unmarked) lower than 0.7 or not?
Response: -1

Request: hey, is surfactant Pk area/RG Pk area, Myoglobin/Trypsin digest for CCCCCCCCCCC(OC(=O)NCCCS(=O)(=O)O)c1ccsc1 (centres unmarked) lower than 0.7 or not?
Response: -1

Request: hey, is surfactant Pk area/RG Pk area, Myoglobin/Trypsin digest for CCCCCCC(OC(=O)NCCCS(=O)(=O)O)c1ccc(C(F)(F)F)cc1 (centres unmarked) lower than 0.7 or not?
Response: 1

Request: hey, is surfactant Pk area/RG Pk area, Myoglobin/Trypsin digest for `CCCCCCCCCCCC(C)(C)OC(=O)NCCCS(=O)(=O)O` lower than 0.7 or not?
Response: 1

Request: hey, is surfactant Pk area/RG Pk area, Myoglobin/Trypsin digest for `CCCCCCCCCSCC(C)(C)OC(=O)NCCCS(=O)(=O)O` lower than 0.7 or not?
Response: 1

Where do these numbers come from? They come from patent US10626349B2.
